Each recorded value in this set is attributed to patent US20200283507A1.

Biological target: T1, Hu/NoV/GII.4/MD145-12/1997/U.S. VLP (human norovirus GII.4)
T1 construct: mature; baculovirus VLP; VP2 may be present
Test: blockade ELISA: VLP binding to synthetic HBGA H3
readout_kind: EC50

| binder | val |
| --- | --- |
| VHH 4.1 (VHH, llama VHH, MD2004 library; pHEN6, C-terminal His6 tag; also called clone 4.1) VHH: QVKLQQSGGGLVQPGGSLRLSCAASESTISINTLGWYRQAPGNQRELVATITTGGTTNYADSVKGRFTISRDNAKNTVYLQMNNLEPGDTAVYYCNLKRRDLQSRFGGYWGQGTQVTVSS | 0.712 µg/mL |
| VHH 3.2 (VHH, llama VHH, MD2004 library; pHEN6, C-terminal His6 tag; also called clone 3.2) VHH: QVQLQESGGGLVQPGGSLRLSCAASESTPSINTMGWYRQAPGKERELVATITSGGMTNYADSVKGRFTISRDNGKNTVYLQMNSLEPGDTAVYYCNLKRRDLQARFGGYWGQGTQVTVSS | 0.641 µg/mL |
| VHH 5.4 (VHH, llama VHH, MD2004 library; pHEN6, C-terminal His6 tag; also called clone 5.4) VHH: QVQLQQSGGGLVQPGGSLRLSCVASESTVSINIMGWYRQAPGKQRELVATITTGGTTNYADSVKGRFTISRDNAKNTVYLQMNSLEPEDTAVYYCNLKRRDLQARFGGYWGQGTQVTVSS | 0.718 µg/mL |

Shifting focus to the binder that follows.
Request: Please indicate EC50 recorded for VHH 1 (VHH, llama VHH, MD2004 (GII.4) library; pHEN6, C-terminal His6 tag; also called 1.1; clone 1) VHH: QVQLQQSGGGLVQAGGSLRLSCAASGLAFSSYAITWLRQAPGTEREFVALISGSGSSTYYADSVKGRFTISRNNAKNTVYLQMNSLKPEDTAVYYCTASEFLLHPPPPNQKYDYWGQGTQVTVSS
Result: 0.85 µg/mL
